# studyTarget: T1, human melanocortin-4 receptor (human, UniProt P32245 1-332)
# T1 construct: whole, on cells; Ki assays used cellular membranes of the CHO-K1 cells; cAMP assays used the whole cells; also called hMC4; hMC-R receptor subtype 4
# T1 sequence (P32245 whole entry): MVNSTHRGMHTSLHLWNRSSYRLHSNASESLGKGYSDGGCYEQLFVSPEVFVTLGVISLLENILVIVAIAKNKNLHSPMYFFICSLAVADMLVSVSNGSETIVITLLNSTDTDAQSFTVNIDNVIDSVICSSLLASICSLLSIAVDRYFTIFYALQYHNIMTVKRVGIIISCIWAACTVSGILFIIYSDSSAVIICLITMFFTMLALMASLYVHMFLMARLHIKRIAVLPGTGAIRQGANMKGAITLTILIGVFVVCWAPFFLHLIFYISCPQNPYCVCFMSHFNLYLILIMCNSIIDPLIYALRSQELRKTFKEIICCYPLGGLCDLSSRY
# assay: competition with [125I]-NDP-alpha-MSH, CHO-K1 cell membranes
A collection of binders and their measured Ki

>  <binder>
XHXRWC (hydantoin ring from Ile 1, C(O) and the amino group of Cys 2; D-Ala 3; D-Phe 5; disulfide Cys 2-Cys 8 (cyclo); C-terminal amide) [cyclo[Hydantoin(C(O)-(Ile-Cys))-D-Ala-His-D-Phe-Arg-Trp-Cys]-NH2]

>  <unitsSymbol>
nM

>  <Ki>
41.6

$$$$
>  <binder>
EHXRWC (not fully specified; hydantoin ring from Gly 1, C(O) and the amino group of Cys 2; D-Phe 5; disulfide Cys 2-Cys 8 (cyclo); C-terminal amide) [cyclo[Hydantoin(C(O)-(Gly-Cys))-Glu-His-D-Phe-Arg-Trp-Cys]-NH2]

>  <unitsSymbol>
nM

>  <Ki>
8.92

$$$$
